From: patent US12534474B2

# experimentalSystem: ROCK2 (Homo sapiens, UniProt O75116)
# Sequence (O75116 whole entry): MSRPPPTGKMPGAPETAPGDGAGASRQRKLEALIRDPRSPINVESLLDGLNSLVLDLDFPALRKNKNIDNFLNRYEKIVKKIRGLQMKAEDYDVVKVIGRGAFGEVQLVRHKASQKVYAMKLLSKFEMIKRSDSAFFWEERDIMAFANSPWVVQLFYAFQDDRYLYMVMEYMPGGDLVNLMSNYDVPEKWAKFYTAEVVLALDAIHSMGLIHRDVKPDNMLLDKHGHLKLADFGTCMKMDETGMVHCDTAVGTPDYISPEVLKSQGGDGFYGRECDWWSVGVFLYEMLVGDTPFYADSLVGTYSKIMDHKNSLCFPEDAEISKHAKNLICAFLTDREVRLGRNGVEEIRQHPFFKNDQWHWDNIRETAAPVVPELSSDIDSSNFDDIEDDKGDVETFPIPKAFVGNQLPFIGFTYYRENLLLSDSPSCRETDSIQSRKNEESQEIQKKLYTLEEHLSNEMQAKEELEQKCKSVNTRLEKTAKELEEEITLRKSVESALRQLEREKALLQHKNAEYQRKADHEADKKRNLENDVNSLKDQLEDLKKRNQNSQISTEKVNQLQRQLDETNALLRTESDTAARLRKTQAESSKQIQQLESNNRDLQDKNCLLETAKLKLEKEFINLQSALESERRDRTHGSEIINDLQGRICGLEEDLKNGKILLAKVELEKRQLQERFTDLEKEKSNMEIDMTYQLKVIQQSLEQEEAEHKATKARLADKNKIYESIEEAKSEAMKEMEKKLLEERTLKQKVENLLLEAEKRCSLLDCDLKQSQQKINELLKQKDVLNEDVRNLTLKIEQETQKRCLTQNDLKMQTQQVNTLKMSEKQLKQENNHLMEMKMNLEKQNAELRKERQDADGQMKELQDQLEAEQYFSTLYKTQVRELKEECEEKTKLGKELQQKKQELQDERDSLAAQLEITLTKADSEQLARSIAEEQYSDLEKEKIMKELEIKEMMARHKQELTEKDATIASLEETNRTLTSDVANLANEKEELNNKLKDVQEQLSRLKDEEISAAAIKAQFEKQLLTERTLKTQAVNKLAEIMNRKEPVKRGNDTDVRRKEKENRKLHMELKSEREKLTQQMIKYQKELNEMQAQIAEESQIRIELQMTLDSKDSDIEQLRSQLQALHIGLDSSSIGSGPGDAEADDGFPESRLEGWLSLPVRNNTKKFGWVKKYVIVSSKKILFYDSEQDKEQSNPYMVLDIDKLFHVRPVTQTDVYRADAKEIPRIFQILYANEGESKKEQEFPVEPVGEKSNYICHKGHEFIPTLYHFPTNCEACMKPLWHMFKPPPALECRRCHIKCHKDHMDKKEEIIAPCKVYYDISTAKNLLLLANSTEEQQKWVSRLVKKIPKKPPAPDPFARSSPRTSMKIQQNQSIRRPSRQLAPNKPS
# protocolNotes: In vitro Rho kinase inhibitory activity assay, ADP-Glo, Method B (ATP 200 μM)
# Format: biochemical
# experimentalParameters: read-out: Method B ROCK 2 (Ki)
Recorded Ki values for a group of compounds are listed next.

Solved entries:
>>> result("O=C(NCCN1CCOCC1)c1cccc(CNc2ncc(-c3ccncc3)c3c2CCO3)c1 [Example 28]")
"3 to 30 nM"
>>> result("O=C(NC1CC2CN(C3COC3)CC2C1)c1cccc(CNc2ncc(-c3ccncc3)c3c2CCO3)c1 (single isomer, unassigned) [Example 43a]")
"≤ 3 nM"
>>> result("CNC(=O)c1cccc(CNc2ncc(-c3ccncc3F)c3c2CCO3)c1 [Example 45]")
"3 to 30 nM"
>>> result("CN1CCn2nc(NC(=O)c3cccc(CNc4ncc(-c5ccncc5)c5c4CCO5)c3)cc2C1 [Example 21]")
"≤ 3 nM"

### Prompt Field request: Ki | item: CNC(=O)c1cccc(CNc2ncc(-c3ccncc3)c3c2OCC3)c1 [Example C, reference compound]
### Response > 30 nM

### Prompt Field request: Ki | item: O=C(Nc1cccnn1)c1cccc(CNc2ncc(-c3ccncc3)c3c2CCO3)c1 [Example 17]
### Response 3 to 30 nM
